# EXPERIMENTAL_PROTOCOL: Unbound clearance in Sprague-Dawley rat at 1 mg/kg,iv and measured after 72 hrs by LC/MS/MS analysis
# Format: ADME, organism-based
# ASSAY_SETUP: in vivo
READOUT: CL free (L/h/kg)
// units = L/h/kg; emit number, no label

> print(dat)
                              line.notation  readout       u  experimental.result
1  CN1CC[C@H](N(c2cc(C#CC(C)(C)C)sc2C(=O)O)C(=O)[C@H]2CC[C@H](C)CC2)C1=O  CL free  L/h/kg                232.8
2  CN1CCCC[C@H](N(c2cc(C#CC(C)(C)C)sc2C(=O)O)C(=O)[C@H]2CC[C@H](C)CC2)C1=O  CL free  L/h/kg                120.6

Problem: Tell me its CL free given CN1CC[C@@H](N(c2cc(C#CC(C)(C)C)sc2C(=O)O)C(=O)[C@H]2CC[C@H](C)CC2)C1=O as the entry.
Solution: 678

Problem: Tell me its CL free given CN1CCCC[C@@H](N(c2cc(C#CC(C)(C)C)sc2C(=O)O)C(=O)[C@H]2CC[C@H](C)CC2)C1=O as the entry.
Solution: 477
